RUN_DESCRIPTION: Half life in Staphylococcus aureus in in vitro pharmacokinetic/pharmacodynamic model
Type: ADME, organism-based
REPORTED_PROPERTY: half-life (h)
The reply should contain only the number, in h.

Prompt: Identify half-life associated with the molecule CN[C@H](CC(C)C)C(=O)N[C@H]1C(=O)N[C@@H](CC(N)=O)C(=O)N[C@H]2C(=O)N[C@H]3C(=O)N[C@H](C(=O)N[C@H](C(=O)O)c4cc(O)cc(O)c4-c4cc3ccc4O)[C@H](O)c3ccc(c(Cl)c3)Oc3cc2cc(c3O[C@@H]2O[C@H](CO)[C@@H](O)[C@H](O)[C@H]2O[C@H]2C[C@](C)(N)[C@H](O)[C@H](C)O2)Oc2ccc(cc2Cl)[C@H]1O
Response: 5.91
